Hi there, I'd appreciate the recorded CC50 for every entry that follows.
experiment: Cytotoxicity against African green monkey Vero cells assessed as reduction in cell viability incubated for 3 to 5 days by Cell titer-glo luminescent assay; assay type: toxicity, cell-based; details: chlorocebus sabaeus, time 3-5 day

Task: For the compound [N-]=[N+]=Nc1ccc(NCCCCN[C@H]2C[C@](O)(CO)[C@@H](O)[C@H](O)[C@H]2O)c([N+](=O)[O-])c1 , what CC50 is on record?
Result: 1020 µM

Task: For the compound [N-]=[N+]=Nc1ccc(NCCOC(=O)NCCN[C@H]2C[C@](O)(CO)[C@@H](O)[C@H](O)[C@H]2O)c([N+](=O)[O-])c1 , what CC50 is on record?
Result: > 1000 µM

Task: For the compound [N-]=[N+]=Nc1ccc(NCCCCCCN[C@H]2C[C@](O)(CO)[C@@H](O)[C@H](O)[C@H]2O)c([N+](=O)[O-])c1 , what CC50 is on record?
Result: 122 µM

Task: For the compound N[C@H]1C[C@](O)(CO)[C@@H](O)[C@H](O)[C@H]1O , what CC50 is on record?
Result: 831 µM

Task: For the compound [N-]=[N+]=Nc1ccc(NCCOCCN[C@H]2C[C@](O)(CO)[C@@H](O)[C@H](O)[C@H]2O)c([N+](=O)[O-])c1 , what CC50 is on record?
Result: 1750 µM

Task: For the compound O=[N+]([O-])c1cc(-n2cnnn2)ccc1NCCCCCCN[C@H]1C[C@](O)(CO)[C@@H](O)[C@H](O)[C@H]1O , what CC50 is on record?
Result: 1360 µM

Task: For the compound CCCCN[C@H]1C[C@](O)(CO)[C@@H](O)[C@H](O)[C@H]1O , what CC50 is on record?
Result: > 1000 µM

Task: For the compound COCCCCCCCCCN[C@H]1C[C@](O)(CO)[C@@H](O)[C@H](O)[C@H]1O , what CC50 is on record?
Result: 1070 µM

Task: For the compound O=[N+]([O-])c1cc(-n2ccnn2)ccc1NCCCCCCN[C@H]1C[C@](O)(CO)[C@@H](O)[C@H](O)[C@H]1O , what CC50 is on record?
Result: 1380 µM

Task: For the compound O=[N+]([O-])c1cc(-n2nccn2)ccc1NCCCCCCN[C@H]1C[C@](O)(CO)[C@@H](O)[C@H](O)[C@H]1O , what CC50 is on record?
Result: 126 µM

Task: For the compound O=[N+]([O-])c1cc(-c2ncccn2)ccc1NCCCCCCN[C@H]1C[C@](O)(CO)[C@@H](O)[C@H](O)[C@H]1O , what CC50 is on record?
Result: 762 µM

---

test: Selectivity index, ratio of CC50 for cytotoxicity against African green monkey Vero cells to IC50 for antiviral activity against DENV New Guinea C strain infected in African green monkey Vero cells; type: toxicity, cell-based; conditions: read-out: Ratio CC50/IC50
Hi there, I'd appreciate the recorded selectivity ratio for every entry that follows.
Reply with just the number.

Task: For the compound O=[N+]([O-])c1cc(-n2ccnn2)ccc1NCCCCCCN[C@H]1C[C@](O)(CO)[C@@H](O)[C@H](O)[C@H]1O , what selectivity ratio is on record?
Result: 102

Task: For the compound [N-]=[N+]=Nc1ccc(NCCCCCCN[C@H]2C[C@](O)(CO)[C@@H](O)[C@H](O)[C@H]2O)c([N+](=O)[O-])c1 , what selectivity ratio is on record?
Result: 88

Task: For the compound O=[N+]([O-])c1cc(-n2nccn2)ccc1NCCCCCCN[C@H]1C[C@](O)(CO)[C@@H](O)[C@H](O)[C@H]1O , what selectivity ratio is on record?
Result: 6.9
